assay: Membrane permeability by Parallel Artificial Membrane Permeability Assay (PAMPA); assay type: in vitro ADME; settings: PAMPA; pH 7.4; GIT mode lipid membrane; 3 hrs, 25° C.; read-out: PAMPA PH 7.4
measured_parameter: Papp at 3 h, 50 gmol/L (×10⁻⁶ cm/s)

- compound_string: "COC(=O)c1cccc2nc(C3CC3)n(Cc3ccc(-c4ccccc4-c4noc(=O)[nH]4)cc3)c12"
  assay_value: 8.9
- compound_string: "Cc1oc(=O)oc1COC(=O)c1cccc2nc(C3CC3)n(Cc3ccc(-c4ccccc4-c4noc(=O)[nH]4)cc3)c12"
  assay_value: 9.5

###

# Papp at 3 h, 50 gmol/L per record follows
test: Membrane permeability by Parallel Artificial Membrane Permeability Assay (PAMPA); assay type: in vitro ADME; details: PAMPA; pH 5.5; GIT mode lipid membrane; 3 hrs, 25° C.; read-out: PAMPA pH 5.5

- compound: "COC(=O)c1cccc2nc(C3CC3)n(Cc3ccc(-c4ccccc4-c4noc(=O)[nH]4)cc3)c12 [Compound B]"
  endpoint_unit: "×10⁻⁶ cm/s"
  Papp at 3 h, 50 gmol/L: 46
- compound: "O=C(O)c1cccc2nc(C3CC3)n(Cc3ccc(-c4ccccc4-c4noc(=O)[nH]4)cc3)c12 [Compound A]"
  endpoint_unit: "×10⁻⁶ cm/s"
  Papp at 3 h, 50 gmol/L: 13
- compound: "Cc1oc(=O)oc1COC(=O)c1cccc2nc(C3CC3)n(Cc3ccc(-c4ccccc4-c4noc(=O)[nH]4)cc3)c12 [Compound X]"
  endpoint_unit: "×10⁻⁶ cm/s"
  Papp at 3 h, 50 gmol/L: 21

###

assay: Membrane permeability by Parallel Artificial Membrane Permeability Assay (PAMPA); type: in vitro ADME; settings: PAMPA; pH 6.2; GIT mode lipid membrane; 3 hrs, 25° C.; read-out: PAMPA PH 6.2

- compound_string: "O=C(O)c1cccc2nc(C3CC3)n(Cc3ccc(-c4ccccc4-c4noc(=O)[nH]4)cc3)c12"
  Papp at 3 h, 50 gmol/L: "0.63 ×10⁻⁶ cm/s"
- compound_string: "COC(=O)c1cccc2nc(C3CC3)n(Cc3ccc(-c4ccccc4-c4noc(=O)[nH]4)cc3)c12"
  Papp at 3 h, 50 gmol/L: "20 ×10⁻⁶ cm/s"
- compound_string: "Cc1oc(=O)oc1COC(=O)c1cccc2nc(C3CC3)n(Cc3ccc(-c4ccccc4-c4noc(=O)[nH]4)cc3)c12"
  Papp at 3 h, 50 gmol/L: "19 ×10⁻⁶ cm/s"
